Origin of values: patent US12336981B2

Readings of IC50 for the listed molecules
Biological target: NAMPT (Homo sapiens)
Construct: His tag; host or cells: E. coli
Sequence (P43490 whole entry): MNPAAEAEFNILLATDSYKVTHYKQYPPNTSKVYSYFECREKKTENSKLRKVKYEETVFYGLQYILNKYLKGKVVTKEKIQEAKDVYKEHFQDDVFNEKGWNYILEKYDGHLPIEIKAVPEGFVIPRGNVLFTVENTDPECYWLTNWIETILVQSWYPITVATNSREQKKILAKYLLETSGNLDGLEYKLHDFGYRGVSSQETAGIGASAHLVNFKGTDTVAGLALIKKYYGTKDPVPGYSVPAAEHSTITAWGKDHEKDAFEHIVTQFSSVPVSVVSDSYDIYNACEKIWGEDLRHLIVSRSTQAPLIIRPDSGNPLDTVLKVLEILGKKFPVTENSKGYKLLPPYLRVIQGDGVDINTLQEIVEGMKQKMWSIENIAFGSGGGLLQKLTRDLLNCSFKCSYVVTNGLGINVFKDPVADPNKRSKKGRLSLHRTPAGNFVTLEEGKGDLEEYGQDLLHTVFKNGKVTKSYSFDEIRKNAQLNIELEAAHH
Assay: Biochemical inhibition assay: NAMPT enzymatic reaction, NMN quantified by mass spectrometry
Settings: NAMPT enzymatic reaction; read-out: Biochem IC50
Description: Biochemical Inhibition Assay NAMPT Protein Purification Recombinant His-tagged NAMPT was produced in E. coli cells, purified over a Ni column, and further purified over a size-exclusion column by XTAL Biostructures. The NAMPT Enzymatic Reaction […] A mass spectrometry-based assay was used to measure the NAMPT reaction product (NMN) and the internal control (L-Cystathionine). NMN and L-Cystathionine were detected using the services of Biocius Lifesciences with the RapidFire system. […]
Only the number, expressed in nM, is required.

molecule | IC50 / nM
CNS(=O)(=O)c1ccccc1S(=O)(=O)c1ccc(CNC(=O)c2cc3cnccc3[nH]2)cc1 | 76
Cc1ccc(S(=O)(=O)c2ccc(CNC(=O)c3cnc4[nH]ncc4c3)cc2)cc1Cl | 6.1
O=C(NCc1ccc(S(=O)(=O)c2ccc3c(c2)OCO3)cc1)c1cc2ccncc2s1 | 3
COc1cccc(S(=O)(=O)c2ccc(CNC(=O)c3cc4cnccc4[nH]3)cc2)c1F | 10
O=C(NCc1ccc(S(=O)(=O)c2ccc(-c3ccccc3)cc2)cc1)c1cc2ccncc2o1 | 3.7
Cc1ccc(S(=O)(=O)c2ccc(CNC(=O)c3cnc4nccn4c3)cc2)c(Cl)c1 | 1.5
COc1ccc(C)cc1S(=O)(=O)c1ccc(CNC(=O)c2cc3ccncc3s2)cc1 | 6
O=C(NCc1ccc(S(=O)(=O)Nc2ccc(Cl)cc2OC(F)(F)F)cc1)c1cc2cnccc2[nH]1 | 2
Cc1cc(C)c(S(=O)(=O)c2ccc(CNC(=O)c3cnc4nccn4c3)cc2)cc1C | 6.9
CN(C)C(=O)c1ccccc1S(=O)(=O)c1ccc(CNC(=O)c2cc3cnccc3[nH]2)cc1 | 951

Q: Record COc1cc(Cl)ccc1S(=O)(=O)c1ccc(CNC(=O)c2cnc3nccn3c2)cc1 : what is its IC50 with NAMPT (Homo sapiens)?
Ans: 3.3

Q: Record Cc1c(F)cccc1S(=O)(=O)c1ccc(CNC(=O)c2cnc3[nH]ncc3c2)cc1 : what is its IC50 with NAMPT (Homo sapiens)?
Ans: 46.9

Q: Record CC(NC(=O)c1cc2cnccc2[nH]1)c1ccc(S(=O)(=O)N2CCCCC2)cc1 (stereo not shown) : what is its IC50 with NAMPT (Homo sapiens)?
Ans: 20

Q: Record COc1cc(F)c(F)cc1S(=O)(=O)c1ccc(CNC(=O)c2cnc3nccn3c2)cc1 : what is its IC50 with NAMPT (Homo sapiens)?
Ans: 11.9

Q: Record CCOc1ccc(S(=O)(=O)c2ccc(CNC(=O)c3cnc4nccn4c3)cc2)c(C)c1 : what is its IC50 with NAMPT (Homo sapiens)?
Ans: 11.7

Q: Record N#Cc1cccc(S(=O)(=O)c2ccc(CNC(=O)c3cnc4[nH]ncc4c3)cc2)c1 : what is its IC50 with NAMPT (Homo sapiens)?
Ans: 18.5

Q: Record O=C(NCc1ccc(S(=O)(=O)Nc2ccccc2OC(F)(F)F)cc1)c1cc2cnccc2[nH]1 : what is its IC50 with NAMPT (Homo sapiens)?
Ans: 6

Q: Record CCCOc1ccccc1NS(=O)(=O)c1ccc(CNC(=O)c2cc3cnccc3[nH]2)cc1 : what is its IC50 with NAMPT (Homo sapiens)?
Ans: 52

Q: Record O=C(NCc1ccc(S(=O)(=O)c2ccc(F)cc2)cc1)c1cc2ccncc2s1 : what is its IC50 with NAMPT (Homo sapiens)?
Ans: 3
